For each record, write down the corresponding viability, T/C.
system: 565726-208-R1-J5-PDC complex spheroids, growth inhibition; assay: Anticancer human tumor 565726-208-R1-J5-PDC patient-derived pancreatic adenocarcinoma cell line growth inhibition [RAS]; conditions: second compound 3.16 µM; first compound 0.0316 µM; hits give low values

Report viability, T/C for NC1c2ccccc2OC12CCN(c1cnc3c(N4CCCc5ncccc54)n[nH]c3n1)CC2 (centres undefined) + C#Cc1c(F)ccc2cc(O)cc(-c3ncc4c(N5CC6CCC(C5)N6)nc(OCC56CCCN5CC(F)C6)nc4c3F)c12 please.
82.6%

Field request: viability, T/C | item: CC1(O)CCCC1n1c(=O)c(C(F)F)cc2cnc(NC3CCN(S(C)(=O)=O)CC3)nc21 (centres undefined) + C#Cc1c(F)ccc2cc(O)cc(-c3ncc4c(N5CC6CCC(C5)N6)nc(OCC56CCCN5CC(F)C6)nc4c3F)c12
88.4%

Param item = C=CC(=O)N1CCN(c2nc(OCC3CCCN3C)nc3c(F)c(-c4nc(N)cc(C)c4C(F)(F)F)c(Cl)cc23)C(C)C1 (centres undefined) + C#Cc1c(F)ccc2cc(O)cc(-c3ncc4c(N5CC6CCC(C5)N6)nc(OCC56CCCN5CC(F)C6)nc4c3F)c12 ; retrieve measured viability, T/C.
70%

Given the molecule Nc1ccn(C2OC(CO)C(O)C2(F)F)c(=O)n1 (centres undefined) + C#Cc1c(F)ccc2cc(O)cc(-c3ncc4c(N5CC6CCC(C5)N6)nc(OCC56CCCN5CC(F)C6)nc4c3F)c12 , what is its reported viability, T/C?
51.1%

Which value of viability, T/C has been reported for C=CC(=O)Nc1cc(Nc2nccc(-c3cn(C)c4ccccc34)n2)c(OC)cc1N(C)CCN(C)C + C#Cc1c(F)ccc2cc(O)cc(-c3ncc4c(N5CC6CCC(C5)N6)nc(OCC56CCCN5CC(F)C6)nc4c3F)c12 in the records?
65%

Given the molecule CC(Nc1ccc2c(c1)OCCn1cc(N3C(=O)OCC3C(F)F)nc1-2)C(N)=O (centres undefined) + C#Cc1c(F)ccc2cc(O)cc(-c3ncc4c(N5CC6CCC(C5)N6)nc(OCC56CCCN5CC(F)C6)nc4c3F)c12 , what is its reported viability, T/C?
90.5%

Return reported viability, T/C; argument: CC(=O)OC12COC1CC(O)C1(C)C(=O)C(O)C3=C(C)C(OC(=O)C(O)C(NC(=O)OC(C)(C)C)c4ccccc4)CC(O)(C(OC(=O)c4ccccc4)C21)C3(C)C (centres undefined) + C#Cc1c(F)ccc2cc(O)cc(-c3ncc4c(N5CC6CCC(C5)N6)nc(OCC56CCCN5CC(F)C6)nc4c3F)c12
19.3%

Sample C[C@@H](NC(=O)c1ncnc(N)c1Cl)c1ncc(C(=O)Nc2cc(C(F)(F)F)c(Cl)cn2)s1 + C#Cc1c(F)ccc2cc(O)cc(-c3ncc4c(N5CC6CCC(C5)N6)nc(OCC56CCCN5CC(F)C6)nc4c3F)c12 — what was its viability, T/C?
110%

Given the entry Cc1nc(N2CCC3(CC2)COC(C)C3N)c(CO)nc1Sc1ccnc(N)c1Cl (centres undefined) + C#Cc1c(F)ccc2cc(O)cc(-c3ncc4c(N5CC6CCC(C5)N6)nc(OCC56CCCN5CC(F)C6)nc4c3F)c12 , report its measured viability, T/C.
108%

Which viability, T/C value is on record for CC(C)NCC(C(=O)N1CCN(c2ncnc3c2C(C)CC3O)CC1)c1ccc(Cl)cc1 (centres undefined) + C#Cc1c(F)ccc2cc(O)cc(-c3ncc4c(N5CC6CCC(C5)N6)nc(OCC56CCCN5CC(F)C6)nc4c3F)c12 ?
101%

Query: viability, T/C; subject: CCC(CC)c1cc(NC2CCC(N)C2)n2nccc2n1 (centres undefined) + C#Cc1c(F)ccc2cc(O)cc(-c3ncc4c(N5CC6CCC(C5)N6)nc(OCC56CCCN5CC(F)C6)nc4c3F)c12
110%

# query: viability, T/C of entry O=C(c1ccc(F)c(F)c1Nc1ccc(I)cc1F)N1CC(O)([C@@H]2CCCCN2)C1 + C#Cc1c(F)ccc2cc(O)cc(-c3ncc4c(N5CC6CCC(C5)N6)nc(OCC56CCCN5CC(F)C6)nc4c3F)c12
65.6%

Query (molecule): CC(C)n1nc(-c2ccc3oc(N)nc3c2)c2c(N)ncnc21 + C#Cc1c(F)ccc2cc(O)cc(-c3ncc4c(N5CC6CCC(C5)N6)nc(OCC56CCCN5CC(F)C6)nc4c3F)c12 ; field requested: viability, T/C
32.9%

// query viability, T/C value for entry CCN1CCN(Cc2ccc(Nc3ncc(F)c(-c4cc(F)c5nc(C)n(C(C)C)c5c4)n3)nc2)CC1 + C#Cc1c(F)ccc2cc(O)cc(-c3ncc4c(N5CC6CCC(C5)N6)nc(OCC56CCCN5CC(F)C6)nc4c3F)c12
57.6%

---

tested on: 565726-208-R1-J5-PDC complex spheroids, growth inhibition; experiment: Anticancer human tumor 565726-208-R1-J5-PDC cell line growth inhibition [RAS]; details: second compound 0.000949 µM; first compound 0.003 µM; hits give low values;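 also: spheroids exposed to compounds for seven days before readout; 100% = DMSO vehicle control viability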
Readout Name: viability, T/C

Would you kindly share the measured viability, T/C for CC1(C)CCC(Nc2ncc(C(F)(F)F)c(-c3c[nH]c4c(P(C)(C)=O)c(C#N)ccc34)n2)CN1 (centres undefined) + CCn1c(-c2cc(N3CCN(C)CC3)cnc2C(C)OC)c2c3cc(ccc31)-c1csc(n1)CC(NC(=O)C1CC1C)C(=O)N1CCCC(N1)C(=O)OCC(C)(C)C2 ?
41.2%

Which measured viability, T/C value corresponds to CCc1c2c(nc3ccc(O)cc13)-c1cc3c(c(=O)n1C2)COC(=O)[C@]3(O)CC + CCn1c(-c2cccnc2C(C)OC)c2c3cc(ccc31)N1CCOC(CC(NC(=O)C(C(C)C)N(C)C(=O)C3(F)CCN(C(=O)C#CC(C)(C)N(C)C)CC3)C(=O)N3CCCC(N3)C(=O)OCC(C)(C)C2)C1 ?
39.5%

# viability, T/C lookup, item CCc1c2c(nc3ccc(O)cc13)-c1cc3c(c(=O)n1C2)COC(=O)[C@]3(O)CC + CCn1c(-c2cc(N3CCN(C)CC3)cnc2C(C)OC)c2c3cc(ccc31)-c1csc(n1)CC(NC(=O)C1CC1C)C(=O)N1CCCC(N1)C(=O)OCC(C)(C)C2
32.1%

Which viability, T/C reading was recorded for the compound CC1(C)CCC(Nc2ncc(C(F)(F)F)c(-c3c[nH]c4c(P(C)(C)=O)c(C#N)ccc34)n2)CN1 (centres undefined) + CCn1c(-c2cccnc2C(C)OC)c2c3cc(ccc31)N1CCOC(CC(NC(=O)C(C(C)C)N(C)C(=O)C3(F)CCN(C(=O)C#CC(C)(C)N(C)C)CC3)C(=O)N3CCCC(N3)C(=O)OCC(C)(C)C2)C1 ?
54%

---

test system: 565726-208-R1-J5-PDC complex spheroids, growth inhibition; test: Anticancer human tumor 565726-208-R1-J5-PDC cell line growth inhibition [RAS]; conditions: second compound 0.1 µM; first compound 3.16 µM; hits give low values;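 also: spheroids exposed to compounds for seven days before readout; 100% = DMSO vehicle control viability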
Criterion: viability, T/C strictly less than 70%. Met: met. Not met: not met.

Lab note: viability, T/C threshold 70%. Does this compound come in strictly under it? CC(=O)OC12COC1CC(O)C1(C)C(=O)C(O)C3=C(C)C(OC(=O)C(O)C(NC(=O)OC(C)(C)C)c4ccccc4)CC(O)(C(OC(=O)c4ccccc4)C21)C3(C)C (stereo unspecified) + C=CC(=O)N1CCN(c2nc(OCC3CCCN3C)nc3c(F)c(-c4nc(N)cc(C)c4C(F)(F)F)c(Cl)cc23)C(C)C1
met

Answer whether the compound Cc1nc(N2CCC3(CC2)COC(C)C3N)c(CO)nc1Sc1ccnc(N)c1Cl (stereo unspecified) + C=CC(=O)N1CCN(c2nc(OCC3CCCN3C)nc3c(F)c(-c4nc(N)cc(C)c4C(F)(F)F)c(Cl)cc23)C(C)C1 has viability, T/C strictly less than 70%
not met

Bench note: check whether CC(=O)OC12COC1CC(O)C1(C)C(=O)C(O)C3=C(C)C(OC(=O)C(O)C(NC(=O)OC(C)(C)C)c4ccccc4)CC(O)(C(OC(=O)c4ccccc4)C21)C3(C)C (stereo unspecified) + C#Cc1c(F)ccc2cc(O)cc(-c3ncc4c(N5CC6CCC(C5)N6)nc(OCC56CCCN5CC(F)C6)nc4c3F)c12 shows viability, T/C below 70%
met

Lab log: compare recorded viability, T/C with 70%; is it strictly lower for CCC(CC)c1cc(NC2CCC(N)C2)n2nccc2n1 (stereo unspecified) + C#Cc1c(F)ccc2cc(O)cc(-c3ncc4c(N5CC6CCC(C5)N6)nc(OCC56CCCN5CC(F)C6)nc4c3F)c12 ?
met

Threshold test, viability, T/C < 70%: C[C@@H](NC(=O)c1ncnc(N)c1Cl)c1ncc(C(=O)Nc2cc(C(F)(F)F)c(Cl)cn2)s1 + C=CC(=O)N1CCN(c2nc(OCC3CCCN3C)nc3c(F)c(-c4nc(N)cc(C)c4C(F)(F)F)c(Cl)cc23)C(C)C1
not met
